# target-entity: TSHR (Homo sapiens)
# Construct: expressed in transfected cells
# procedure-summary: cAMP accumulation radioimmunoassay (RIA), inhibition of TSH-induced cAMP production in HEK-293 cells stably expressing TSHR
# Assay type: cell-based
# Parameters: concentration or dose not given beside the values
# condition-notes: inhibiting cAMP stimulation by TSH, radioimmunoassay
readout-name: antagonistic activity (% inhibition) (%)

Nc1ccc(N2C(=O)[C@@H]3[C@H]4C[C@H]([C@@H]5Sc6[nH]c(=O)sc6[C@@H](c6ccccc6)[C@H]45)[C@@H]3C2=O)cc1 (racemic) [Compound S79]    29
CN1CCN(c2ccc(N3C(=O)[C@@H]4[C@H]5C[C@H]([C@@H]6Sc7[nH]c(=O)sc7[C@@H](c7ccccc7)[C@H]56)[C@@H]4C3=O)cc2[N+](=O)[O-])CC1 [Compound S38]    40
Cc1ccc(N2C(=O)C3C4CC(C3C2=O)C2C(c3ccccc3)c3sc(=O)[nH]c3SC42)cc1 (stereo not drawn) [Compound S4]    63

A = Cc1ccc(N2C(=O)[C@@H]3[C@H]4C[C@H]([C@@H]5Sc6[nH]c(=O)sc6[C@@H](c6ccccc6)[C@H]45)[C@@H]3C2=O)cc1 (racemic) [Compound S90]
B = O=C1C2C3C=CC(C3)C2C(=O)N1c1ccc(N2CCOCC2)c([N+](=O)[O-])c1 (stereo not drawn) [Compound S26]
C = COc1ccc(N2C(=O)[C@@H]3[C@H]4C[C@H]([C@@H]5Sc6[nH]c(=O)sc6[C@@H](c6ccccc6)[C@H]45)[C@@H]3C2=O)cc1 (racemic) [Compound S89]
Problem: Arrange these 3 compounds in increasing order of antagonistic activity (% inhibition). Reply: labels, ordered per the request.
Solution: C, B, A
(C: 22%, B: 35%, A: 53%)

###

# target-entity: TSHR (Homo sapiens)
# Construct: expressed in transfected cells
# procedure-summary: cAMP accumulation radioimmunoassay (RIA), inhibition of TSH-induced cAMP production in HEK-293 cells stably expressing TSHR
# Format: cell-based
# Design: concentration or dose not given beside the values
# condition-notes: inhibiting cAMP stimulation by TSH, radioimmunoassay
readout-name: antagonistic activity (% inhibition) (%)

COC(=O)c1ccc(N2C(=O)[C@@H]3[C@H]4C[C@H]([C@@H]5Sc6[nH]c(=O)sc6[C@@H](c6ccccc6)[C@H]45)[C@@H]3C2=O)cc1 (racemic)    29
O=C1[C@@H]2[C@H]3C[C@H]([C@@H]4Sc5[nH]c(=O)sc5[C@@H](c5cccc(O)c5)[C@H]34)[C@@H]2C(=O)N1c1ccccc1 (racemic)    34
COC(=O)c1cccc(N2C(=O)[C@@H]3[C@H]4C[C@H]([C@@H]5Sc6[nH]c(=O)sc6[C@@H](c6ccccc6)[C@H]45)[C@@H]3C2=O)c1 (racemic)    34

I = O=C1[C@@H]2[C@H]3C[C@H]([C@@H]4Sc5[nH]c(=O)sc5[C@@H](c5ccccc5)[C@H]34)[C@@H]2C(=O)N1c1ccccc1 (racemic)
II = O=C1[C@@H]2[C@H]3C[C@H]([C@@H]4Sc5[nH]c(=O)sc5[C@@H](c5ccc(O)cc5)[C@H]34)[C@@H]2C(=O)N1c1ccccc1 (racemic)
Problem: Task for the reader: decide whether I or II has the larger antagonistic activity (% inhibition). Lab log: write the label of the selected item as the result.
Solution: I
(I: 70%, II: 38%)

###

# target-entity: TSHR (Homo sapiens, UniProt P16473)
# Sequence (P16473 21-764): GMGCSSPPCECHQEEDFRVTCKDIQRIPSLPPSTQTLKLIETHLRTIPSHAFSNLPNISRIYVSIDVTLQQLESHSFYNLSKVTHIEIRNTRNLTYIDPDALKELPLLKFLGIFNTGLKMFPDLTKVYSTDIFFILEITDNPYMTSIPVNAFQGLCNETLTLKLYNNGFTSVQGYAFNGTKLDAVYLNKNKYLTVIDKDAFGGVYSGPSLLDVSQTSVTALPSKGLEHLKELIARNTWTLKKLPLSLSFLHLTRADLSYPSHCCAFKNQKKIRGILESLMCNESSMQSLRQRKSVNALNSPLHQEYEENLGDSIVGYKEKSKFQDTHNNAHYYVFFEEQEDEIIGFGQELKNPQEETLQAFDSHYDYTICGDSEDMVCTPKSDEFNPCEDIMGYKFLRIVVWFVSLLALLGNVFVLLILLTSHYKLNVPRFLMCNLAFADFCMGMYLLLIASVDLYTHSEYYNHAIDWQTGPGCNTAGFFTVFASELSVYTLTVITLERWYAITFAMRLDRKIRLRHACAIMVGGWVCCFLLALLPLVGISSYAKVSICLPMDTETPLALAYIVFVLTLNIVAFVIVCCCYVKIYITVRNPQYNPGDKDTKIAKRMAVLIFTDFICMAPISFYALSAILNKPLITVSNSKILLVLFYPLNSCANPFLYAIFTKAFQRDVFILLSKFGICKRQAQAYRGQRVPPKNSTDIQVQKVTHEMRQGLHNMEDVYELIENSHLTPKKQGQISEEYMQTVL
# procedure-summary: cAMP accumulation radioimmunoassay (RIA), inhibition of TSH-induced cAMP production in HEK-293 cells stably expressing TSHR
# condition-notes: secondary screen (RIA); dose-dependent inhibition of cAMP production caused by TSH (EC80 value); HEK-293-TSHR
readout-name: pIC50
Convention used: pIC50 is expressed as -log10 of the molar concentration.

Problem: # pIC50 lookup, item O=C1[C@@H]2[C@H]3C[C@H]([C@@H]4Sc5[nH]c(=O)sc5[C@@H](c5ccccc5)[C@H]34)[C@@H]2C(=O)N1c1ccccc1 (racemic)
Solution: 4.55

Each recorded value in this set is attributed to patent US10596168B2.
